- ASSAY REMARKS: chemical genetic growth profiling, strain panel (AID 1159580);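 note: tested at 20 µM; growth read once vehicle control cultures reached saturation at 30 °C; 1 = growth at the plate median or of vehicle wells; lower values mean less growth of the strain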
- CONDITION INFO: S. cerevisiae deletion strains, growth OD, locus YKL067W, strain YNK1, stronger effect = lower value
In all, about 5,500 compounds went through this assay and about 2,000 (36%) were called active. About 18% were inconclusive and are not listed. The list shows a part of the results.
Measured normalized growth, listed per entry for reference.
METRIC: normalized growth

| QUERY SMILES | METRIC | REPORTED |
| --- | --- | --- |
| CSc1nc(Sc2n[nH]c(-c3ccccc3)n2)cc(Sc2n[nH]c(-c3ccccc3)n2)n1 | normalized growth | 1.01 (inactive) |
| O=C(Oc1ccc(C2SCCS2)cc1)c1cccs1 | normalized growth | 0.684 (active) |
| N#C/C(=N/Nc1ccc(C(F)(F)F)cc1)C(=O)C1CC1 | normalized growth | 0.904 (inactive) |
